Biological target: CCN2-EGFR (Homo sapiens) (UniProt P00533+P29279)
Sequence (P00533 whole entry, looked up, the tested form may be a part): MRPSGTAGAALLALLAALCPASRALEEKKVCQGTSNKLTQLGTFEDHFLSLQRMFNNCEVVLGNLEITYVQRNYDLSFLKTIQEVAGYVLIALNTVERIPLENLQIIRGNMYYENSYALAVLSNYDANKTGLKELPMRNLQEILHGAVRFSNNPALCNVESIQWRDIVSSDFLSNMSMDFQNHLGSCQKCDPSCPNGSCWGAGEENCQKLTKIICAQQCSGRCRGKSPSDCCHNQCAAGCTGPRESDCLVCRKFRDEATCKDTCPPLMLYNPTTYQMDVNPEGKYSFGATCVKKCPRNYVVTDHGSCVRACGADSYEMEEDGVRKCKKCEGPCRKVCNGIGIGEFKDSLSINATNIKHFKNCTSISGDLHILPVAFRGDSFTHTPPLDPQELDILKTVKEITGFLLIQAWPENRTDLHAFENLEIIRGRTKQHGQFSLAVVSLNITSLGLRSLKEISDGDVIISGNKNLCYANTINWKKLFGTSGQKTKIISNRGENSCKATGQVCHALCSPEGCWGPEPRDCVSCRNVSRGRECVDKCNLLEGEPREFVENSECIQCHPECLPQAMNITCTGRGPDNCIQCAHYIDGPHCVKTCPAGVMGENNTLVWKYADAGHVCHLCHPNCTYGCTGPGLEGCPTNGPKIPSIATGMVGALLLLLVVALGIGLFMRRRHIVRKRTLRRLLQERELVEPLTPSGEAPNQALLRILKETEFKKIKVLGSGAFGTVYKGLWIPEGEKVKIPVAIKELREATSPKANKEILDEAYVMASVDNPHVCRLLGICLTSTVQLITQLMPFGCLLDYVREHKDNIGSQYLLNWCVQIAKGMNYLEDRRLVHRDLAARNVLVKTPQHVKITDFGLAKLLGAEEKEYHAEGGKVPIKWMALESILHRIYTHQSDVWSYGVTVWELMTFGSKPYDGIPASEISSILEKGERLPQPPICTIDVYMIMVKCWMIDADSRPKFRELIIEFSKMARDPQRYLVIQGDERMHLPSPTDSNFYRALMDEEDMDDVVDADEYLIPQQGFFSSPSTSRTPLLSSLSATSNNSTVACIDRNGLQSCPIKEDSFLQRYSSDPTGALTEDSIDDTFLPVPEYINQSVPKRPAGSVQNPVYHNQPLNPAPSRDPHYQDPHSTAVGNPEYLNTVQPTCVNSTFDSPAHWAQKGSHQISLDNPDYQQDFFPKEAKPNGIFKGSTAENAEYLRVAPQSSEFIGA
Sequence (P29279 whole entry, looked up, the tested form may be a part): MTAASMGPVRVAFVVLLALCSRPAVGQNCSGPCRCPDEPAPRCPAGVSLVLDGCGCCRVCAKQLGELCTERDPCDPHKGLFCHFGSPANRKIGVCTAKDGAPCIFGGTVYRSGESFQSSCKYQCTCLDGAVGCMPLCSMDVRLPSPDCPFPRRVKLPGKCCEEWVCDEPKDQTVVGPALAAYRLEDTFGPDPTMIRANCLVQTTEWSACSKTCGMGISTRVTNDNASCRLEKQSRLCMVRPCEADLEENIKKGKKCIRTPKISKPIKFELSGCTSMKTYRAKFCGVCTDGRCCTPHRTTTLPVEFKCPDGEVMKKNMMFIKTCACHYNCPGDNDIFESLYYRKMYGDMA
Test: Inhibition of His-tagged full length human CCN2 CT domain/human Fc-tagged EGFR protein-protein interaction using TMB as chromogenic substrate at 100 uM incubated for 140 mins by microplate reader assay relative to control
Peptide text beside a SMILES is read from it.

| COMPOUND | EXPERIMENTAL TARGET | inhibition / % |
| --- | --- | --- |
| CC(C)C[C@H](NC(=O)[C@@H](N)CC(C)C)C(=O)N[C@@H](C)C(=O)N[C@@H](CC(=O)O)C(=O)N[C@H](C(=O)N[C@H](C(=O)N[C@@H](Cc1c[nH]cn1)C(=O)N[C@@H](C)C(=O)N[C@@H](CCCNC(=N)N)C(=O)N1CCC[C@H]1C(=O)N[C@@H](Cc1c[nH]c2ccccc12)C(=O)N[C@H](C(N)=O)[C@@H](C)O)[C@@H](C)O)[C@@H](C)O (H-LLADTTHARPWT-NH2) | CCN2-EGFR (Homo sapiens) (UniProt P00533+P29279) | 65.8 |
| C[C@@H](O)[C@H](N)C(=O)N[C@@H](Cc1c[nH]cn1)C(=O)N[C@@H](Cc1c[nH]cn1)C(=O)N[C@@H](CCCNC(=N)N)C(=O)N[C@@H](CCC(=O)O)C(=O)N[C@@H](Cc1c[nH]c2ccccc12)C(=O)N[C@H](C(N)=O)[C@@H](C)O (H-THHREWT-NH2) | CCN2-EGFR (Homo sapiens) (UniProt P00533+P29279) | 11.1 |
| CC(C)C[C@H](NC(=O)[C@@H](N)CC(C)C)C(=O)N[C@@H](C)C(=O)N[C@@H](CC(=O)O)C(=O)N[C@H](C(=O)N[C@@H](C)C(=O)N[C@@H](Cc1c[nH]cn1)C(=O)N[C@@H](Cc1c[nH]cn1)C(=O)N[C@@H](CCCNC(=N)N)C(=O)N1CCC[C@H]1C(=O)N[C@@H](Cc1c[nH]c2ccccc12)C(=O)N[C@H](C(N)=O)[C@@H](C)O)[C@@H](C)O (H-LLADTAHHRPWT-NH2) | CCN2-EGFR (Homo sapiens) (UniProt P00533+P29279) | 44.1 |

---

Measured inhibition by item
Molecular target: CCN2-EGFR (Homo sapiens) (UniProt P00533+P29279)
Test: Inhibition of His-tagged full length human CCN2 CT domain/human Fc-tagged EGFR protein-protein interaction using TMB as chromogenic substrate at 100 uM incubated for 140 mins by microplate reader assay relative to control
Peptide text beside a SMILES is read from it.
QUANTITY NAME: inhibition (%)

| COMPOUND | ASSAY RESULT |
| --- | --- |
| C[C@@H](O)[C@H](N)C(=O)N[C@@H](Cc1c[nH]cn1)C(=O)N[C@@H](CCC(=O)O)C(=O)N[C@@H](CCCNC(=N)N)C(=O)N1CCC[C@H]1C(=O)N[C@@H](Cc1c[nH]c2ccccc12)C(=O)N[C@H](C(N)=O)[C@@H](C)O (H-THERPWT-NH2) | 12.1 |
| CC(C)C[C@H](NC(=O)[C@@H](N)CC(C)C)C(=O)N[C@@H](C)C(=O)N[C@@H](C)C(=O)N[C@H](C(=O)N[C@H](C(=O)N[C@@H](Cc1c[nH]cn1)C(=O)N[C@@H](Cc1c[nH]cn1)C(=O)N[C@@H](CCCNC(=N)N)C(=O)N1CCC[C@H]1C(=O)N[C@@H](Cc1c[nH]c2ccccc12)C(=O)N[C@H](C(N)=O)[C@@H](C)O)[C@@H](C)O)[C@@H](C)O (H-LLAATTHHRPWT-NH2) | 76 |

---

Target: CCN2-EGFR (Homo sapiens) (UniProt P00533+P29279)
Experiment: Inhibition of His-tagged full length human CCN2 CT domain/human Fc-tagged EGFR protein-protein interaction using TMB as chromogenic substrate at 100 uM incubated for 140 mins by microplate reader assay relative to control
Peptide text beside a SMILES is read from it.

| MOLECULE | EXPERIMENTAL TARGET | inhibition (%) |
| --- | --- | --- |
| C[C@@H](O)[C@@H]1NC(=O)[C@H](Cc2c[nH]c3ccccc23)NC(=O)[C@@H]2CCCN2C(=O)[C@H](CCCNC(=N)N)NC(=O)[C@H](CCCCN)NC(=O)[C@H](Cc2c[nH]cn2)NC(=O)[C@H]([C@@H](C)O)NC1=O (cyclo(HKRPWTT)) | CCN2-EGFR (Homo sapiens) (UniProt P00533+P29279) | 13.2 |
| C[C@@H](O)[C@H](NC(=O)[C@H](Cc1c[nH]c2ccccc12)NC(=O)[C@@H]1CCCN1C(=O)[C@H](CCCNC(=N)N)NC(=O)[C@H](Cc1c[nH]cn1)NC(=O)[C@H](Cc1c[nH]cn1)NC(=O)[C@@H](NC(=O)[C@@H](NC(=O)[C@@H](N)CC(=O)O)[C@@H](C)O)[C@@H](C)O)C(N)=O (H-DTTHHRPWT-NH2) | CCN2-EGFR (Homo sapiens) (UniProt P00533+P29279) | 65.8 |
| C[C@H](N)C(=O)N[C@@H](CC(=O)O)C(=O)N[C@H](C(=O)N[C@H](C(=O)N[C@@H](Cc1c[nH]cn1)C(=O)N[C@@H](Cc1c[nH]cn1)C(=O)N[C@@H](CCCNC(=N)N)C(=O)N1CCC[C@H]1C(=O)N[C@@H](Cc1c[nH]c2ccccc12)C(=O)N[C@H](C(N)=O)[C@@H](C)O)[C@@H](C)O)[C@@H](C)O (H-ADTTHHRPWT-NH2) | CCN2-EGFR (Homo sapiens) (UniProt P00533+P29279) | 61.9 |
| CC(C)C[C@H](NC(=O)[C@@H](N)CC(C)C)C(=O)N[C@@H](C)C(=O)N[C@@H](CC(=O)O)C(=O)N[C@H](C(=O)N[C@H](C(=O)N[C@@H](Cc1c[nH]cn1)C(=O)N[C@@H](Cc1c[nH]cn1)C(=O)N[C@@H](CCCNC(=N)N)C(=O)N[C@@H](C)C(=O)N[C@@H](Cc1c[nH]c2ccccc12)C(=O)N[C@H](C(N)=O)[C@@H](C)O)[C@@H](C)O)[C@@H](C)O (H-LLADTTHHRAWT-NH2) | CCN2-EGFR (Homo sapiens) (UniProt P00533+P29279) | 65.6 |
| C[C@@H](O)[C@H](N)C(=O)N[C@H](C(=O)N[C@@H](Cc1c[nH]cn1)C(=O)N[C@@H](Cc1c[nH]cn1)C(=O)N[C@@H](CCCNC(=N)N)C(=O)N1CCC[C@H]1C(=O)N[C@@H](Cc1c[nH]c2ccccc12)C(=O)N[C@H](C(N)=O)[C@@H](C)O)[C@@H](C)O (H-TTHHRPWT-NH2) | CCN2-EGFR (Homo sapiens) (UniProt P00533+P29279) | 60 |
